- studyTarget: wild type c-kit (Homo sapiens (Human), UniProt P10721)
- Sequence (P10721 26-976): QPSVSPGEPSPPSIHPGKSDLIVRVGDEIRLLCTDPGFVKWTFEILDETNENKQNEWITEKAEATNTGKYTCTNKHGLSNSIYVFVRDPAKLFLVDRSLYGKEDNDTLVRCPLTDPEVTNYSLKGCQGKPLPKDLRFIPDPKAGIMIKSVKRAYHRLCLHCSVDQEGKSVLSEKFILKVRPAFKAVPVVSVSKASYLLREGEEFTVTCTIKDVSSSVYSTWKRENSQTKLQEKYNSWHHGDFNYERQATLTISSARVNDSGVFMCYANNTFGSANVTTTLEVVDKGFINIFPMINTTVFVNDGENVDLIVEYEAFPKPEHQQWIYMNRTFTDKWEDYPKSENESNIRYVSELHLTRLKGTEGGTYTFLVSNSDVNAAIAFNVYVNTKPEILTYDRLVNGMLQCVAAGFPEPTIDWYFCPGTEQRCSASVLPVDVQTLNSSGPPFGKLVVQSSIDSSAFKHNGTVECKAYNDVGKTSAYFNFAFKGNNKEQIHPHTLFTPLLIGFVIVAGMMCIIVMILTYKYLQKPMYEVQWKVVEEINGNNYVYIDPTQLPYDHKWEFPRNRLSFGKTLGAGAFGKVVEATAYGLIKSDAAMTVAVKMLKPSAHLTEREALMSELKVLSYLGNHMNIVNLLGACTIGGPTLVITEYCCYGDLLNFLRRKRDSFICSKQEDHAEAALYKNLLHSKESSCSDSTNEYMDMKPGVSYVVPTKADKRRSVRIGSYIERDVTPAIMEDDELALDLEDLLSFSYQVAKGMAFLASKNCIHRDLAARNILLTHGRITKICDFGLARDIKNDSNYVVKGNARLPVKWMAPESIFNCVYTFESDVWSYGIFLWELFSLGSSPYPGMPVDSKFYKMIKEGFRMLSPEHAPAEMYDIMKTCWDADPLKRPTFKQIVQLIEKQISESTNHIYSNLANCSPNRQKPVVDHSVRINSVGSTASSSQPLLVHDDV
- testDetails: PathScan phospho c-kit (Tyr719) sandwich ELISA in SCF-stimulated M-07e cells (pKIT assay)
- Assay type: cell-based
- condition: ELISA assay (values not marked *)
pIC50: −log10 of the molar value.
Record True whenever pIC50 is at 8 or higher; record False when lower.

Completed entries (count: 3):
COC(=O)N1CC(c2cnn(-c3ccc(C)c(NC(=O)c4cnn5ccc(NCC(F)F)cc45)c3)n2)C1
False
COC[C@@H](O)Cn1cc(-c2ccn3ncc(C(=O)Nc4cc(-c5nnn(C6CC6)n5)c(F)cc4C)c3c2)c(C2CC2)n1
True
CCn1nnc(-c2cc(NC(=O)c3cnn4ccc(-c5cn(CC(C)(C)O)nc5C)cc34)c(Cl)cc2F)n1
True

Asked: Is reported pIC50 greater than or equal to 8 here: Cc1ccc(-c2nnn(C3CN(S(=O)(=O)CCCCC#N)C3)n2)cc1NC(=O)c1cnn2ccccc12
Given back: False

Asked: Reported pIC50 reaches at least 8 for COCCNc1ccn2ncc(C(=O)Nc3cc(-c4nnn(C5CN(C(=O)OC)C5)n4)ccc3C)c2c1 ?
Given back: False

###

- studyTarget: wild type c-kit (Homo sapiens (Human))
- testDetails: MSD Phospho c-Kit (Tyr721) Assay Whole Cell Lysate Kit in SCF-stimulated M-07e cells (pKIT assay, marked *)
- Type: cell-based
- condition: Meso Scale Discovery (MSD) assay (values marked *)
measure: IC50 (nM)
# output: bare number, implied unit nM

Below, each entry is followed by its recorded IC50 result.
Cc1ccc(-c2nnn(C[C@H]3CC3(F)F)n2)cc1NC(=O)c1cnn2ccc(-c3cn[nH]c3)cc12 (single isomer, unassigned)
1.1
Cc1ccc(-c2nnn(C3CC(F)(F)C3)n2)cc1NC(=O)c1cnn2ccc(-c3cn[nH]c3)cc12
1.7

Asked: What value of IC50 has been reported for the following molecule? Cc1ccc(-c2nnn(C3CCC3)n2)cc1NC(=O)c1cnn2ccccc12
Given back: 2.7

Asked: Looking for the measured IC50 of Cc1ccc(-c2nnn(C3CC(F)(F)C3)n2)cc1NC(=O)c1cnn2ccc(N3CCOCC3)cc12 , can you help?
Given back: 3.9

###

- studyTarget: UniProt:P08183
- Sequence (P08183 whole entry): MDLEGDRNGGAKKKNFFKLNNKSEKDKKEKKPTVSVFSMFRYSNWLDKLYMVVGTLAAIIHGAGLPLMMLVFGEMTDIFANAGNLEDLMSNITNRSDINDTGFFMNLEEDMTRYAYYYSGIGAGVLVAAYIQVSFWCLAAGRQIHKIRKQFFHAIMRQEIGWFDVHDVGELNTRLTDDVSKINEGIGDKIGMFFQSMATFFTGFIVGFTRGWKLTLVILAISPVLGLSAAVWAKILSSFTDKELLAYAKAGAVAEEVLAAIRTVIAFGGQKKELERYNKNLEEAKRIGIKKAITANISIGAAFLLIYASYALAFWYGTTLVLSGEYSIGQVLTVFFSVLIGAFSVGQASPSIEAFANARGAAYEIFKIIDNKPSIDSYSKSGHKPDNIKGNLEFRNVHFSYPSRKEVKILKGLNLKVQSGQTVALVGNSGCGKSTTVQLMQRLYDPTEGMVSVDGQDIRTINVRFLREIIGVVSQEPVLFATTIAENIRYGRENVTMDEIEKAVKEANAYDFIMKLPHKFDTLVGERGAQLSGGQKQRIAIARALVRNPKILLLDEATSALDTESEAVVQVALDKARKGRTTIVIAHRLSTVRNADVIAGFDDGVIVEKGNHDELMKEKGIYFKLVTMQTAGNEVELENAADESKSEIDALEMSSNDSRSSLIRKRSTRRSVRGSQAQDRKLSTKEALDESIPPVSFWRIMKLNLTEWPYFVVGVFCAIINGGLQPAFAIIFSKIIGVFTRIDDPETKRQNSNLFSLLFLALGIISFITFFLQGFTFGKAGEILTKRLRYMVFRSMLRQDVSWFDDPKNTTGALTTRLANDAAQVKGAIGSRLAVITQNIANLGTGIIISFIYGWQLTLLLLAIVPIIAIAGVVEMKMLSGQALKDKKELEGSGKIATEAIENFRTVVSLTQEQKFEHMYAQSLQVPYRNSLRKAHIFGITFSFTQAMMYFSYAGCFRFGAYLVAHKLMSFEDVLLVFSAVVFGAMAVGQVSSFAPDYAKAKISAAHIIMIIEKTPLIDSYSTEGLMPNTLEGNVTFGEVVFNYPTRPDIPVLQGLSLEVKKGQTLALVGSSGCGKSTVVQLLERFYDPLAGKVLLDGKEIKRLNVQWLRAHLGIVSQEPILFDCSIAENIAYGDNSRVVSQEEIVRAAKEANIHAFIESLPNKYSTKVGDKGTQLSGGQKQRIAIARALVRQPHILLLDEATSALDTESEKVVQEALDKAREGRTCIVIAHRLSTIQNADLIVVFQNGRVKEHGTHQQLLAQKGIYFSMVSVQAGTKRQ
- testDetails: MDCK-MDR1 cell monolayer drug transport assay (P-gp efflux ratio)
- Format: in vitro ADME
- condition: pH 7.4, MDCK-MDR1 cells, 0.1 uM concentration of compound (denoted by **), read-out: Pgp Efflux Ratio
Rule: efflux ratio at 2 h, 0.1 µM of 6 or more gives fulfilled; anything lower gives not fulfilled.

Before answering, review these 3 worked examples.
CC(C)(O)Cn1cc(-c2ccn3ncc(C(=O)Nc4cc(-c5nnn(C6CC6)n5)ccc4Cl)c3c2)cn1 [Example 234]
not fulfilled
Cc1cc(F)c(-c2nnn(C3CC3)n2)cc1NC(=O)c1cnn2ccc(-c3cn(CC(C)(C)O)nc3C3CC3)cc12 [Example 241]
fulfilled
Cc1cc(Cl)c(NC(=O)c2cnn3ccc(-c4cnn(CC(C)(C)O)c4)cc23)cc1-c1nnn(C2CC2)n1 [Example 227]
not fulfilled

Then there is this molecule:
Asked: Check the entry Cc1nn(CC(C)(C)O)cc1-c1ccn2ncc(C(=O)Nc3cc(-c4nnn(C5CC5)n4)c(F)cc3Cl)c2c1 [Example 251] : does efflux ratio at 2 h, 0.1 µM equal or exceed 6?
Given back: not fulfilled
